Value source: paper PMC12218921

target: T1, hRpn13_ΔMTT (human, UniProt Q16186 4-150); experiment: fluorescence polarisation; competition: unlabeled peptide at various concentrations preincubated with 80 nM hRpn13_ΔMTT, then 10 nM TAMRA-hRpn2 (940–953) added; PBS with 1 mM TCEP, room temperature; [Inhibitor] vs response (three parameters) fit; estimated EC50; details: both partners purified
T1 construct: hRpn13 (ADRM1), human, hRpn13 (1-150) without M1-T3; 15N-labelled for NMR; also called hRpn13 Pru variant with ENT M1 – T3, aG, and bP deleted; source: E. coli BL21 (DE3), purified (glutathione sepharose, thrombin cleavage, Superdex 75); not shown: GST, N-terminal, cleaved
T1 sequence (Q16186 other isoform, or with tags, fused parts or gaps mutant): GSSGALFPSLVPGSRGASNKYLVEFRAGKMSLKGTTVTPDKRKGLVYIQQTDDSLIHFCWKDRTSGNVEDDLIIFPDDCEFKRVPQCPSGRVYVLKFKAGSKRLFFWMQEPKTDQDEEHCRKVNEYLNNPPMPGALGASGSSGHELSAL
pEC50: −log10 of the molar value.
pEC50 reference
endpoint label: pEC50

{"binder": "PPEPFEYIDD (source: bought: New England Peptide) [hRpn2 (944–953)]", "endpoint label": "pEC50", "recorded number": 4.06}
{"binder": "QEPEPPEPFEYIDD (source: synthetic peptide (GenScript Biotech; for the fluorescence polarization assay bought: New England Peptide)) [hRpn2 (940–953)]", "endpoint label": "pEC50", "recorded number": 6.49}
{"binder": "EDGEGEE (acidic peptide chosen by the authors; also called acidic peptide; source: synthetic peptide (GenScript)) [EDGEGEE peptide]", "endpoint label": "pEC50", "recorded number": 3.20}
